biological target: Rhesus PDE2A3 (Macaca mulatta); construct: made in house; host or cells: AD293 cells, transient transfection, pcDNA3.3-TOPO; lysate supernatant used as enzyme; assay: PDE2 fluorescence polarization (IMAP FP) inhibition assay, rhesus enzyme; type: biochemical, rhesus macaque; conditions: Lab A; read-out: Rhesus PDE2 Ki (nM) Lab A
Sequence (B3VTJ2 1-941): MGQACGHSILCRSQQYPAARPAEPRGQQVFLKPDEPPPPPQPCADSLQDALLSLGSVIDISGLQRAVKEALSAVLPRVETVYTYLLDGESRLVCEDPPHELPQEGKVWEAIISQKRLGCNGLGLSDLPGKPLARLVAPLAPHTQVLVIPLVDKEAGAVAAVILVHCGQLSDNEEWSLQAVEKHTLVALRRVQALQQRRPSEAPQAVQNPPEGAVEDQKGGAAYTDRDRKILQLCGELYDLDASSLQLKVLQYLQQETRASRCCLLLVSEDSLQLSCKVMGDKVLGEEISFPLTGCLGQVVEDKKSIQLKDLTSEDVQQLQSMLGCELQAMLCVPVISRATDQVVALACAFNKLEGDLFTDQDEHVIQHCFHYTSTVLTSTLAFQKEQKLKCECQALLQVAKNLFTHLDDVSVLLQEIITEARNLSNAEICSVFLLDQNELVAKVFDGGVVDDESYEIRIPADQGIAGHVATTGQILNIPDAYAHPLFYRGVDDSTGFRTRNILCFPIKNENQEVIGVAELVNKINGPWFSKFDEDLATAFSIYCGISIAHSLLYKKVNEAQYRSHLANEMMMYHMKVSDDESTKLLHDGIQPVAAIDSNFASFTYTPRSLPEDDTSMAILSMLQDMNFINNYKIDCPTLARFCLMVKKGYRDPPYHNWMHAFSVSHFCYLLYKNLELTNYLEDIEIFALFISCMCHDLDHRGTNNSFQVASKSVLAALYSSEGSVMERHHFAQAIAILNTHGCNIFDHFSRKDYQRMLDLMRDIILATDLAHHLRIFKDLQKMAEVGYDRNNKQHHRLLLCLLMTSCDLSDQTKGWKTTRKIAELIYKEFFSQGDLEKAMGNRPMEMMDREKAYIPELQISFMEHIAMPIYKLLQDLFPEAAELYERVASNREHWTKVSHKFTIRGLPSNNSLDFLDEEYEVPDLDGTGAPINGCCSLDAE
Friendly reminder: Ki below 10 nM is label 1, at or above is label 0.

{"molecule": "COc1ccc(Cc2nc(-c3cnn(C(C)c4ccc(C(F)(F)F)cc4F)c3)cc(=O)[nH]2)cc1F (single isomer, unassigned) [Example 146]", "measured target": "Rhesus PDE2A3 (Macaca mulatta)", "assigned label": "label 0"}
{"molecule": "Cc1nc(-c2cnn(C(C)c3ccc(OC(F)F)cc3F)c2)cc(=O)[nH]1 (single isomer, unassigned) [Example 87]", "measured target": "Rhesus PDE2A3 (Macaca mulatta)", "assigned label": "label 0"}
{"molecule": "Cc1nc(-c2cnn(C(C)c3ccc(OC(F)F)cc3C)c2)cc(=O)[nH]1 (single isomer, unassigned) [Example 89]", "measured target": "Rhesus PDE2A3 (Macaca mulatta)", "assigned label": "label 0"}
{"molecule": "COc1cc(C(F)(F)F)ccc1[C@@H](C)n1cc(-c2cc(=O)[nH]c(C)n2)cn1 (single isomer, unassigned)", "measured target": "Rhesus PDE2A3 (Macaca mulatta)", "assigned label": "label 0"}
{"molecule": "COc1ccc(Cc2nc(-c3cnn(C(C)c4ccc(C(F)(F)F)cc4F)c3)cc(=O)[nH]2)cc1 (single isomer, unassigned) [Example 138]", "measured target": "Rhesus PDE2A3 (Macaca mulatta)", "assigned label": "label 1"}
{"molecule": "Cc1nc(-c2cnn(C(C)c3ccc(C(F)(F)F)cc3Cl)c2)cc(=O)[nH]1 (single isomer, unassigned) [Example 83]", "measured target": "Rhesus PDE2A3 (Macaca mulatta)", "assigned label": "label 1"}
{"molecule": "Cc1nc(-c2cnn(C(C)c3ccc(C4CC4)cc3F)c2)cc(=O)[nH]1 (single isomer, unassigned) [Example 91]", "measured target": "Rhesus PDE2A3 (Macaca mulatta)", "assigned label": "label 0"}
{"molecule": "COCc1ccc(C(C)n2cc(-c3cc(=O)[nH]c(C)n3)cn2)c(Cl)c1 (single isomer, unassigned) [Example 104]", "measured target": "Rhesus PDE2A3 (Macaca mulatta)", "assigned label": "label 0"}
{"molecule": "Cc1nc(-c2cnn(C(C)c3ccc(C4CC4)cc3C)c2)cc(=O)[nH]1 (single isomer, unassigned) [Example 94]", "measured target": "Rhesus PDE2A3 (Macaca mulatta)", "assigned label": "label 0"}
{"molecule": "COc1ccc(Cc2nc(-n3cc(C(C)c4ccc(C(F)(F)F)cc4)cn3)cc(=O)[nH]2)cc1OC (stereo not shown)", "measured target": "Rhesus PDE2A3 (Macaca mulatta)", "assigned label": "label 1"}
{"molecule": "Cc1nc(-c2cnn(C3(c4ccc(C(F)(F)F)cc4F)CCC3)c2)cc(=O)[nH]1", "measured target": "Rhesus PDE2A3 (Macaca mulatta)", "assigned label": "label 0"}
{"molecule": "CCc1ccc(C(C)n2cc(-c3cc(=O)[nH]c(C)n3)cn2)c(Cl)c1 (single isomer, unassigned) [Example 99]", "measured target": "Rhesus PDE2A3 (Macaca mulatta)", "assigned label": "label 0"}
{"molecule": "Cc1nc(-c2cnn(C(C)c3ccc(C(F)(F)F)cc3F)c2)cc(=O)[nH]1 (single isomer, unassigned)", "measured target": "Rhesus PDE2A3 (Macaca mulatta)", "assigned label": "label 0"}
{"molecule": "Cc1ccc(C(C)n2cc(-c3cc(=O)[nH]c(C)n3)cn2)c(F)c1 (single isomer, unassigned) [Example 151]", "measured target": "Rhesus PDE2A3 (Macaca mulatta)", "assigned label": "label 0"}
{"molecule": "COCc1ccc(C(C)n2cc(-c3cc(=O)[nH]c(C)n3)cn2)c(Cl)c1 (single isomer, unassigned) [Example 103]", "measured target": "Rhesus PDE2A3 (Macaca mulatta)", "assigned label": "label 0"}
{"molecule": "Cc1nc(-c2cnn(C(C)c3ccc(C(F)(F)F)cc3C(F)(F)F)c2)cc(=O)[nH]1 (single isomer, unassigned) [Example 145]", "measured target": "Rhesus PDE2A3 (Macaca mulatta)", "assigned label": "label 0"}
